METHOD: Noncompartmental pharmacokinetic parameters (Cmax, Tmax, AUC, Racc) in QD and BID cohorts of Form B
Format: in vivo, human
STATED_CONDITIONS: human, plasma, oral, 100 mg, Compound III; 100 mg BID of Form B; Cohort 6; Day 29; read-out: Tmax (Mean)
QUANTITY_NAME: Tmax (h)
One number for each entry, in h.

Query (compound): "O=C1NCC2(CCCCC2)n2c1cc1cnc(Nc3ccc(N4CCNCC4)cn3)nc12" ; field requested: Tmax
4.4

---

METHOD: Plasma concentration versus time of Compound I and metabolite Compound III in patients dosed QD or BID with Form B of Compound II plus fulvestrant
Type: in vivo, human
STATED_CONDITIONS: human, plasma, oral, 650 mg, Cohort 5, 650 mg QD of Form B, Day 15; read-out: Trough Compound III Concentration, Max
QUANTITY_NAME: concentration at 15 day (ng/mL)
Numbers only, in ng/mL.

Query (molecule): "O=C1NCC2(CCCCC2)n2c1cc1cnc(Nc3ccc(N4CCNCC4)cn3)nc12" ; field requested: concentration at 15 day
3.6

---

METHOD: Plasma concentration versus time of Compound I and metabolite Compound III in patients dosed QD or BID with Form B of Compound II plus fulvestrant
Type: in vivo, human
STATED_CONDITIONS: human, plasma, oral, 200 mg, Cohort 8, 200 mg BID of Form B, Day 29, 4.0 h; read-out: Compound I Concentration, Min
QUANTITY_NAME: concentration at 4 h (ng/mL)
Answers are plain numbers, in ng/mL.

Query (compound): CC(C)N1CCN(c2ccc(Nc3ncc4cc5n(c4n3)C3(CCCCC3)CNC5=O)nc2)CC1 [Compound I] ; field requested: concentration at 4 h
7.69

---

METHOD: Noncompartmental pharmacokinetic parameters (Cmax, Tmax, AUC, Racc) in QD and BID cohorts of Form B
Type: in vivo, human
STATED_CONDITIONS: human, plasma, oral, 400 mg, Compound I; 400 mg QD of Form B; Cohort 3; Day 29; read-out: AUClast (Mean)
QUANTITY_NAME: AUC(0-t) (ng·h/mL)
One number for each entry, in ng·h/mL.

Query (compound): "CC(C)N1CCN(c2ccc(Nc3ncc4cc5n(c4n3)C3(CCCCC3)CNC5=O)nc2)CC1" ; field requested: AUC(0-t)
278

---

METHOD: Plasma concentration versus time of Compound I and metabolite Compound III in patients dosed QD or BID with Form B of Compound II plus fulvestrant
Format: in vivo, human
STATED_CONDITIONS: human, plasma, oral, 100 mg, 100 mg BID of Form B, Day 1, 2.0 h, Mean; read-out: Compound I Concentration
QUANTITY_NAME: concentration at 2 h (ng/mL)
Numbers only, in ng/mL.

Query (compound): "CC(C)N1CCN(c2ccc(Nc3ncc4cc5n(c4n3)C3(CCCCC3)CNC5=O)nc2)CC1" ; field requested: concentration at 2 h
6.21

---

METHOD: Plasma concentration versus time of Compound I and metabolite Compound III in patients dosed QD or BID with Form B of Compound II plus fulvestrant
Format: in vivo, human
STATED_CONDITIONS: human, plasma, oral, 500 mg, Cohort 4, 500 mg QD of Form B, Day 22; read-out: Trough Compound III Concentration, Max
QUANTITY_NAME: concentration at 22 day

Query (molecule): "O=C1NCC2(CCCCC2)n2c1cc1cnc(Nc3ccc(N4CCNCC4)cn3)nc12" ; field requested: concentration at 22 day
2.11 ng/mL
